Value source: a melting point compilation (Tetko et al.; mined from patent text by program, amines drawn as free bases though some values may be those of a salt)

Item-by-item account of melting point

# melting point (compound: Cc1noc(-c2cn(-c3cccc(Br)c3)cn2)n1 ) is 200 to 202 °C

# melting point (compound: CCOc1ccn2nc(SCc3ccccc3)nc2n1 ) is 115 to 117 °C

# melting point (compound: COC(=O)CCCCCCCCCCNC(=O)C(CSC(C)=O)Cc1ccccc1 (stereo unspecified) ) is 64 to 66 °C

# melting point (compound: CNC(=O)Cn1c(-c2ccccn2)nc2cccnc21 ) is 228 to 230 °C

# melting point (compound: O=C(O)CCCCCCCCCC=Cc1ccco1 ) is 38 to 39 °C

# melting point (compound: COc1ccc(OC)c(S(=O)(=O)Nc2onc(C)c2Br)c1 ) is 118 to 120 °C

* * *

Item-by-item account of melting point

Some compounds with known melting point results, for comparison:
NC(=O)c1cc2cc(F)c(F)cc2o1
217 °C
Cc1c(C#N)c(=O)n(-c2cc(C(=O)OC(C)C)c(Cl)cc2F)c(=O)n1C
171 to 173 °C
CCCC(CC(=O)NC(=O)OC(C)(C)C)Nc1ccccc1 (stereo unspecified)
103 to 104 °C
COC1(C)CCc2cc(O)c(C(C)(C)C)cc2O1 (stereo unspecified)
115 to 117 °C
CC(C)(CCO)c1ccc2ncc(C(=O)NCc3ccc(Cl)cc3)c(O)c2c1
184 to 192 °C

# melting point (compound: COc1cc(C(=O)CS(=O)(=O)c2ccccc2)ccc1Cc1cn(C)c2ccc(NC(=O)NC3CCCC3)cc12 ) is 203 to 206 °C

# melting point (compound: CC(N)c1cc(NC(=O)OC(C)(C)C)ccc1NC(=O)OC(C)(C)C (stereo unspecified) ) is 170 °C

# melting point (compound: CCCCCCCC(Oc1ccc(C(C)CC)cc1)C(=O)Nc1c(-c2ccccc2)nc2ccccc2c1C(=O)OC (stereo unspecified) ) is 89 to 91 °C

# melting point (compound: NC(=O)c1ccc(N2CCNCC2)cc1 ) is 240 to 243 °C

# melting point (compound: Cc1cc(=O)n(-c2cc3c(cc2F)sc(=O)n3CC(N)=O)c(=O)n1C ) is > 260 °C

# melting point (compound: O=C(O)CCCCCC=C(c1ccccc1)c1ccccc1 ) is 88 to 89 °C

# melting point (compound: CC(=O)OC12Oc3cc(C(C)C)ccc3C1(OC(C)=O)C(=O)c1ccccc12 (stereo unspecified) ) is 138 to 140 °C

# melting point (compound: Nc1ncc([N+](=O)[O-])c(OCc2ccccc2)n1 ) is 164 to 167 °C

# melting point (compound: O=[N+]([O-])c1cccc(OCCc2c[nH]cn2)c1 ) is 174 to 178 °C

# melting point (compound: COC(=O)CCC(=O)c1ccccc1N ) is 50 to 51 °C

# melting point (compound: CNS(=O)(=O)c1cc(C(=O)O)cc(N2CCCC2)c1Oc1ccccc1 ) is 245 to 248 °C

# melting point (compound: CCOC(=O)c1cc2c(OCC3CO3)cccc2[nH]1 (stereo unspecified) ) is 142 to 144 °C

# melting point (compound: Cn1cc(C2=C(c3c4n(c5ccccc35)C[C@@H]3CN(C=O)C[C@@H]3C4)C(=O)NC2=O)c2ccccc21 (relative stereo) ) is 316 to 318 °C

# melting point (compound: CN1C(=O)NC(N)C1=O (stereo unspecified) ) is 122 to 125 °C

# melting point (compound: CC(C)c1ccc(CN2CCC(NC(=O)NC(=O)c3ccccc3)CC2)cc1 ) is 240 to 242 °C

# melting point (compound: CC(=O)Nc1ccc(C)cc1Oc1c([N+](=O)[O-])cc(C(=O)O)cc1S(N)(=O)=O ) is 238 to 240 °C

# melting point (compound: COC(=O)c1nc2ccc(Cl)cc2c(O)c1C(=O)OC ) is 228 to 230 °C

# melting point (compound: Cc1nnc(Cl)c2cc(O)ccc12 ) is > 260 °C

# melting point (compound: O=C(c1nc(-c2ccccc2)nc2ccccc12)N1CCCCCC1 ) is 140 °C

# melting point (compound: [N-]=[N+]=Nc1cc(N)cc(I)c1 ) is 89 to 91 °C
